Sourced from the supplement of paper PMC9112550

Test system: Escherichia coli TOP10
Test: shrunken log2 fold change of peptide-encoding DNA abundance (4.5 h post-induction vs induction); higher = less antimicrobial activity (less host growth inhibition)
Conditions: time post-induction: 4.5 h; library: site-saturation at positions 5, 18, 19, 20
measured-parameter: shrunken log2 fold change

1. RRIRYRPPRLPRPRPRPISHPRP	-0.675
2. RRIRARPPRLPRPRPRPDNVPRP	-0.059
3. RRIRIRPPRLPRPRPRPSHLPRP	-0.622

----------
A collection of sequences and their measured shrunken log2 fold change
Test system: Escherichia coli TOP10;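 also: peptides expressed intracellularly from a pBAD plasmid library in pooled LB shake-flask culture, induced with 0.3% L-arabinose, DNA abundance read by NGS, three biological replicates, DESeq2 with apeglm shrinkage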
Assay: shrunken log2 fold change of peptide-encoding DNA abundance (4.5 h post-induction vs induction); higher = less antimicrobial activity (less host growth inhibition)
Conditions: time post-induction: 4.5 h; library: site-saturation at positions 5, 18, 19, 20
measured-parameter: shrunken log2 fold change

1. RRIRQRPPRLPRPRPRPPTYPRP	-0.0183
2. RRIRFRPPRLPRPRPRPNRCPRP	-0.717
3. RRIRHRPPRLPRPRPRPPYRPRP	-0.399
4. RRIRGRPPRLPRPRPRPAVDPRP	0.896
